tested on: NOMO1; test: cell viability relative to DMSO control; higher = less cytotoxic; conditions: RPMI 5 mM glucose + 10% dialyzed FBS; 48 h; 0.00702 µM
Parameter cell viability: see the listing below.
Field format: number, assumed %, no unit text.

cell viability measured on CNC(=O)c1ccc(N2C(=S)N(c3cnc(C#N)c(C(F)(F)F)c3)C(=O)C23CCC3)cc1F = 107

Entry COc1ccc([C@@H]2CC(=O)c3c(O)cc(O[C@@H]4O[C@H](CO[C@@H]5O[C@@H](C)[C@H](O)[C@@H](O)[C@H]5O)[C@@H](O)[C@H](O)[C@H]4O)cc3O2)cc1O ; cell viability = 115

* * *

compounds and their reported cell viability
test system: SEM cells; test: cell viability relative to DMSO control; higher = less cytotoxic; conditions: RPMI 5 mM glucose + 10% FBS; 48 h; 0.19 µM

CN[C@@H](C)[C@H]1[C@H](O)C[C@@]2(C)[C@@H]3CC[C@H]4C(C)(C)[C@@H](NC)CC[C@@]45C[C@@]35CC[C@]12C	83.3%

Kindly note the recorded cell viability for C[C@H]1COC2=C3N1\C=C(C(O)=O)/C(=O)C3=CC(=C2N4CCN(C)CC4)F , which is 81.4%

Lab note: measured cell viability of COc1ccc([S+](=O)([O-])N(C(C)=O)c2ccccc2/C=C/c2cc[n+]([O-])cc2)cc1 was 103%

compound C[N]1C=C(C=N1)C2=C3\C=N/NC(=O)C4=C3C(=CC(=C4)NC(=O)[C@H](N)C5CCCCC5)[NH]2 , cell viability observed: 103%

Reported cell viability of O=C(O)Cn1nnc(-c2cc(N3CCC(Oc4cc(F)ccc4Br)CC3)no2)n1 : 100%

Recorded result, c1ccc2[nH]c(-c3cscn3)nc2c1 , cell viability: 108%

# compound CC(C)CNc1ccnc(NCc2csc(-c3ccccc3)n2)n1 ; its cell viability = 145%

compound Cn1cnc2c(F)c(Nc3ccc(Br)cc3F)c(C(=O)NOCCO)cc21 , cell viability observed: 108%

# cell viability (compound: CCN(CC)CCCCNc1ncc2cc(-c3cc(OC)cc(OC)c3)c(NC(=O)NC(C)(C)C)nc2n1 ) is 90.7%

* * *

system: SEM cells; test: cell viability relative to DMSO control; higher = less cytotoxic; conditions: RPMI 5 mM glucose + 10% FBS; 48 h; 5.12 µM
Readout: cell viability (%)
Numeric answer only, unit % assumed.

The examples below pair each entry with its known result.
Cn1cnc2c(F)c(Nc3ccc(Br)cc3F)c(C(=O)NOCCO)cc21	87.1
CCC1(c2ccccc2)C(=O)NCNC1=O	116
CCN(CC)CCOc1ccc(/C(=C(\Cl)c2ccccc2)c2ccccc2)cc1	108

The molecule OC(c1cc(C(F)(F)F)nc2c(C(F)(F)F)cccc12)C1CCCCN1 (stereo not drawn) on SEM cells: cell viability was 132

Response field cell viability (SEM cells) for item C[C@]12CC[C@@H]3c4ccc(O)cc4CC[C@H]3[C@@H]1[C@@H](O)[C@@H](O)[C@@H]2O : 99

Known value: SEM cells cell viability of the molecule O=C1NC(=O)/C(=C/c2ccc3nccc(-c4ccncc4)c3c2)S1 equals 23.9

Value sought: cell viability, system SEM cells, item CN[C@@H]1[C@@H](O)[C@@H](O[C@@H]2[C@@H](O)[C@H](O[C@H]3O[C@H](CN)[C@@H](O)[C@H](O)[C@H]3O)[C@@H](N)C[C@H]2NC(=O)[C@@H](O)CN)OC[C@]1(C)O . Result: 111

Noted cell viability for COCCOc1ccc2c(c1)ncn2-c1ccc2cccc(N3CCC(N)CC3)c2n1 , tested on SEM cells: 25.8

* * *

tested on: P12-Ichikawa; assay: cell viability relative to DMSO control; higher = less cytotoxic; settings: RPMI 5 mM glucose + 10% dialyzed FBS; 48 h; 0.00702 µM
Reported values of cell viability for individual entries
Kindly answer with a numeric value in %, unit omitted.

Illustrative cases are given below, each with its answer.
CNC(=O)c1ccc2cc(C3(O)CCn4cncc43)ccc2c1 (centres undefined)	121
C[S+](=O)([O-])Nc1ccc([N+](=O)[O-])cc1Oc1ccccc1	114
S=C(NCc1ccc2c(c1)OCO2)N1CCN(c2ncnc3c2oc2ccccc23)CC1	115
CCOC(=O)N1CCN(/[N+]([O-])=N/Oc2ccc([N+](=O)[O-])cc2C#N)CC1	105
O=C(C=CC#Cc1cccc(N[S+](=O)([O-])c2ccccc2)c1)NO	117

cell viability for NNCCc1ccccc1 is 116

Short answer for CN[C@@H](C)[C@H]1[C@H](O)C[C@@]2(C)[C@@H]3CC[C@H]4C(C)(C)[C@@H](NC)CC[C@@]45C[C@@]35CC[C@]12C : cell viability was 83.8

The value of cell viability measured for the compound NC\1=N\C(=O)N(\C=C1)[C@@H]2O[C@H](CO)[C@@H](O)[C@@H]2O turned out to be 11.1

GET /value?item= c1ccc(CCCN2CCN(CCOC(c3ccccc3)c3ccccc3)CC2)cc1 &field=cell viability returns 88

Recorded cell viability (compound C[C@]12CCC(=O)C=C1CC[C@@H]1[C@@H]2[C@@H](O)C[C@@]2(C)[C@H]1CC[C@]2(O)C(=O)CO ): 107

Consider CC1=C(C)C(=O)C(C(CCCCCC(=O)O)c2ccccc2)=C(C)C1=O (centres undefined) . Its measured cell viability is 71.7

Just so you know, measured cell viability for c1ccc2[nH]c(-c3cscn3)nc2c1 came out at 122

# cell viability (compound: CNCCCC12CCC(c3ccccc31)c1ccccc12 ) is 96.6

* * *

test system: NOMO1; assay: cell viability relative to DMSO control; higher = less cytotoxic; settings: RPMI 5 mM glucose + 10% dialyzed FBS; 48 h; 0.569 µM
Readout: cell viability (%)
Please give a number only; it is taken to be in %.

Data point: CCOC(=O)[C@@H](N)Cc1ccc(-c2cc(O[C@H](c3ccc(Cl)cc3-n3ccc(C)n3)C(F)(F)F)nc(N)n2)cc1.O=C(O)CNC(=O)c1ccccc1 ; cell viability = 122

C[C@]12CC[C@@H]3c4ccc(O)cc4CC[C@H]3[C@@H]1[C@@H](O)[C@@H](O)[C@@H]2O yielded cell viability of 131

Kindly note the recorded cell viability for c1ccc(CCCN2CCN(CCOC(c3ccccc3)c3ccccc3)CC2)cc1 , which is 85.5

The measured cell viability associated with CN[C@@H](C)[C@H]1[C@H](O)C[C@@]2(C)[C@@H]3CC[C@H]4C(C)(C)[C@@H](NC)CC[C@@]45C[C@@]35CC[C@]12C reads 93.1

Record Cc1nn(Cc2ccccc2Cl)c(C)c1CN(C)CC(O)COc1ccc(Cl)cc1 (configuration not stated) , field cell viability: 100

Record CC(C)(O)CC[C@@H](O)[C@](C)(O)[C@H]1CC[C@@]2(O)C/3=C/C(=O)[C@@H]4C[C@@H](O)[C@@H](O)C[C@]4(C)[C@H]3CC[C@]12C , field cell viability: 105

Looking up CC(C)C1NC(=O)C(NC(=O)C2=C3\N=C\4/C(=C(C)\C(=O)\C(=C4C(=O)NC5C(C)OC(=O)C(C(C)C)N(C)C(=O)CN(C)C(=O)C6CCCN6C(=O)C(NC5=O)C(C)C)N)OC3=C(C)C=C2)C(C)OC(=O)C(C(C)C)N(C)C(=O)CN(C)C(=O)C7CCCN7C1=O (configuration not stated) , I see its cell viability listed as 4.5

The measured cell viability associated with Cc1onc(-c2ccccc2Cl)c1C(=O)N[C@@H]1C(=O)N2[C@@H]1SC(C)(C)[C@@H]2C(=O)[O-] reads 102

Sample O=C(Nc1cc(Cl)cc2c1[nH]c1cnccc12)c1cccnc1 ; cell viability observed: 131

ClC1=CC=C(C=C1)C(C#N)C2=C(Cl)C=C(C=C2Cl)N3\N=C/C(=O)NC3=O (configuration not stated) has a reported cell viability of 99.6

Given item C[C@](Cc1c[nH]c2ccccc12)(NC(=O)OC1C2CC3CC(C2)CC1C3)C(=O)NC[C@H](NC(=O)CCC(=O)O)c1ccccc1 (some centres not stated) , the value recorded as its cell viability is 153

* * *

test system: NOMO1; assay: cell viability relative to DMSO control; higher = less cytotoxic; settings: RPMI 5 mM glucose + 10% FBS; 48 h; 0.0211 µM
Readout: cell viability (%)
Give your result in % as a bare value.

Consider the reported cell viability for these molecules:
COc1cc(F)c(F)c(Nc2ccc(I)cc2F)c1N[S+](=O)([O-])C1(C[C@H](O)CO)CC1	99.4
C[C@]12CCC(=O)C=C1CC[C@@H]1[C@@H]2[C@@H](O)C[C@@]2(C)[C@H]1CC[C@]2(O)C(=O)CO	112

// cell viability (NOMO1) for C[C@H]1C[C@@H]2[C@H](CC[C@@]3(C)[C@H]2CC[C@]3(OC(C)=O)C(C)=O)[C@@]\4(C)CCC(=O)\C=C14 = 101

Record CN1CCN(C2=Nc3cc(Cl)ccc3Nc3ccccc32)CC1 ; system NOMO1; cell viability = 98.4

Kindly note: NOMO1, CC1(C)O[C@@H]2C[C@H]3[C@@H]4C[C@H](F)C5=CC(=O)C=C[C@]5(C)[C@@]4(F)[C@@H](O)C[C@]3(C)[C@]2(C(=O)CO)O1 , cell viability value reported: 108

Record for N[S+]([O-])(=O)C1=C(Cl)C=C2\N=C/N[S+]([O-])(=O)C2=C1 under target or system NOMO1: cell viability reported as 100
